# measurement-target: RELB subunit;p50 subunit (Homo sapiens;Homo sapiens, UniProt Q01201;P19838 120-401;7-356)
# Sequence (Q01201 120-401, chain 1 of 2): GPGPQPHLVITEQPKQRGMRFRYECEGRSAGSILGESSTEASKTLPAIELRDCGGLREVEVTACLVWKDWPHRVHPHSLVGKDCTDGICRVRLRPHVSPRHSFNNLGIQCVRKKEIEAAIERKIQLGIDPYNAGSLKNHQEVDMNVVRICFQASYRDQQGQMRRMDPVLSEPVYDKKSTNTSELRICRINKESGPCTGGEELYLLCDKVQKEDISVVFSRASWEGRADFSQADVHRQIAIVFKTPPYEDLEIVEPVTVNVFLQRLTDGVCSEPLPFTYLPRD
# Sequence (P19838 7-356, chain 2 of 2): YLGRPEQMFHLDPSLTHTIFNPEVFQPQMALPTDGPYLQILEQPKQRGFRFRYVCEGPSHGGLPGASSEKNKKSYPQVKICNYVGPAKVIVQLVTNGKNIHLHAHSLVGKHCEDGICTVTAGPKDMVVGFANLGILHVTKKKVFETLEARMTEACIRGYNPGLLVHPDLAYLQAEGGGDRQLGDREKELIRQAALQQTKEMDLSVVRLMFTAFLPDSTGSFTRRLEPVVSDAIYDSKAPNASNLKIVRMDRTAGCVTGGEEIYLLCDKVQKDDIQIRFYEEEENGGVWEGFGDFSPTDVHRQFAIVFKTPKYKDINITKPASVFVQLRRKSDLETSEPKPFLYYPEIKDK
# procedure-summary: protein binding microarray; high values mean tight binding
# cond: dsDNA, one strand shown
measurement-label: binding signal (z-score)
Give your result in z-score as a bare value.

Example sequences with recorded binding signal:
AGGTAGGTCCC    0.0975
AAATACGCCCT    -1.09
GAAGACACCCC    -0.183
CAATACTTCCT    -1.04
GGGTTCGTCCC    0.251

Quick check: binding signal of GAAAGTGTCCT ?
-0.858

Quick check: binding signal of AGATTACCCCC ?
1.18

Quick check: binding signal of AAAGGCCTCCC ?
-0.857

Quick check: binding signal of GAGTAGTCCCT ?
1.12

Quick check: binding signal of CAAAATATCCC ?
0.128

###

# measurement-target: RELARELA (p65 homodimer) (Homo sapiens, UniProt Q04206 1-307)
# Sequence (Q04206 1-307): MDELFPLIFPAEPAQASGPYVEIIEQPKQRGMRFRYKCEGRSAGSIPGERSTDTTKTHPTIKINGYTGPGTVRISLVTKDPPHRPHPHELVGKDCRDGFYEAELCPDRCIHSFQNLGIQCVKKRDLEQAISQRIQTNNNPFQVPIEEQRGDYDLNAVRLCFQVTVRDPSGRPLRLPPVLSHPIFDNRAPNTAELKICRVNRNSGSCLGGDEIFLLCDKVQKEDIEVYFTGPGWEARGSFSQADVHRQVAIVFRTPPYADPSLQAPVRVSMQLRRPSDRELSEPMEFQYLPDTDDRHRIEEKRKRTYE
# procedure-summary: protein binding microarray; high values mean tight binding
# cond: dsDNA, one strand shown
Threshold-based label: binding signal under 0.1 z-score gives T, binding signal not under 0.1 z-score gives F.

Answered cases to consult:
CAAGTTCCCCT    F
GGGGTGATCCC    F
AGGAGCGCCCC    T

Dear reviewer, please state whether GGGTGCTCCCT has binding signal strictly beneath 0.1 z-score.
T

Dear reviewer, please state whether AGATTGACCCT has binding signal strictly beneath 0.1 z-score.
T

Dear reviewer, please state whether AGAATTGTCCC has binding signal strictly beneath 0.1 z-score.
F

Dear reviewer, please state whether GAGTTAATCCC has binding signal strictly beneath 0.1 z-score.
T

Dear reviewer, please state whether GAATAGGTCCT has binding signal strictly beneath 0.1 z-score.
T

Dear reviewer, please state whether GAGATTTTCCT has binding signal strictly beneath 0.1 z-score.
F

Dear reviewer, please state whether GAGTATTTCCC has binding signal strictly beneath 0.1 z-score.
F

Dear reviewer, please state whether AGAGTAGCCCT has binding signal strictly beneath 0.1 z-score.
T

Dear reviewer, please state whether GGGATAGTCCC has binding signal strictly beneath 0.1 z-score.
F

###

# measurement-target: p52p52 homodimer (Homo sapiens, UniProt Q00653 4-332)
# Sequence: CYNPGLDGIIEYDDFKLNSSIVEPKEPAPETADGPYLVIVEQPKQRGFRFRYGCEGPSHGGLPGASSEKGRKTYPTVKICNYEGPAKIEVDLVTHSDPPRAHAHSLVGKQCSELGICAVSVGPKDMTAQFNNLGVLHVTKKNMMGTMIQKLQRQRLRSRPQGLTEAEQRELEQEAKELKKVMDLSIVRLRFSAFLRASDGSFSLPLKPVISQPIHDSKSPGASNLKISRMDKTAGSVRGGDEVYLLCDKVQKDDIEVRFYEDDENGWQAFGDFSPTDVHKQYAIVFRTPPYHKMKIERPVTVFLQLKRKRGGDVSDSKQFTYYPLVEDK
# procedure-summary: protein binding microarray; high values mean tight binding
# cond: dsDNA, one strand shown
Could you label it Met if measured binding signal is -0.06 z-score or higher, and Not met otherwise?

Answered cases to consult:
GAATATCCCCC    Met
GGAGTGGCCCT    Not met
CAAAGGGTCCC    Met
AGGTTGCTCCC    Not met
AGGTGCACCCC    Met

Exam item: decide whether the reported binding signal for AAGTAGTCCCC is at least -0.06 z-score.
Met

Exam item: decide whether the reported binding signal for GGATGATTCCT is at least -0.06 z-score.
Not met

Exam item: decide whether the reported binding signal for CGATATATCCC is at least -0.06 z-score.
Not met

Exam item: decide whether the reported binding signal for AGGAGCCCCCT is at least -0.06 z-score.
Met

Exam item: decide whether the reported binding signal for CGAGTCCCCCT is at least -0.06 z-score.
Met

Exam item: decide whether the reported binding signal for AGGATTTCCCT is at least -0.06 z-score.
Met

Exam item: decide whether the reported binding signal for GGGTGTGTCCC is at least -0.06 z-score.
Met

Exam item: decide whether the reported binding signal for AGAAAGTCCCC is at least -0.06 z-score.
Met

Exam item: decide whether the reported binding signal for CAAATTACCCT is at least -0.06 z-score.
Met

Exam item: decide whether the reported binding signal for CGGGTCCTCCC is at least -0.06 z-score.
Not met

Exam item: decide whether the reported binding signal for CGGTGTACCCT is at least -0.06 z-score.
Met

Exam item: decide whether the reported binding signal for AAAGAAGTCCT is at least -0.06 z-score.
Not met

Exam item: decide whether the reported binding signal for AGGTGTCCCCC is at least -0.06 z-score.
Met

Exam item: decide whether the reported binding signal for AAGGTAGCCCC is at least -0.06 z-score.
Met

Exam item: decide whether the reported binding signal for AAGTGCTCCCT is at least -0.06 z-score.
Not met
